The reported numbers originate from paper PMC10698511.

// reported fraction unbound per item
# PROCEDURE_DETAILS: Plasma protein binding, human
# Assay type: in vitro ADME
# respond with the number and nothing more

MOLECULE | fraction unbound
O=C(Cc1ccc(-c2ccc(OCCN3CCOCC3)cc2)cn1)NCc1ccccc1 [Compound 8, Tirbanibulin, reference compound] | 0.187

Query molecule follows.
# fraction unbound lookup, item Cc1ccc(CNC(=O)Cn2ccc(-c3ccc(OCCN4CCOCC4)cc3)cc2=O)cc1 [Compound 56]
0.171

---

# PROCEDURE_DETAILS: Plasma protein binding, mouse
# Type: in vitro ADME
QUANTITY_MEASURED: fraction unbound

COMPOUND | ASSAY_VALUE
Cc1ccc(CNC(=O)Cn2ccc(-c3ccc(OCCN4CCOCC4)cc3)cc2=O)cc1 | 0.04

Query compound follows.
# fraction unbound lookup, item O=C(Cc1ccc(-c2ccc(OCCN3CCOCC3)cc2)cn1)NCc1ccccc1 [Compound 8, Tirbanibulin, reference compound]
0.152
